From: patent US20240150334A1

- systemTested: HSD17B13 enzyme (Homo sapiens (Human), UniProt Q7Z5P4)
- Sequence (Q7Z5P4 20-300): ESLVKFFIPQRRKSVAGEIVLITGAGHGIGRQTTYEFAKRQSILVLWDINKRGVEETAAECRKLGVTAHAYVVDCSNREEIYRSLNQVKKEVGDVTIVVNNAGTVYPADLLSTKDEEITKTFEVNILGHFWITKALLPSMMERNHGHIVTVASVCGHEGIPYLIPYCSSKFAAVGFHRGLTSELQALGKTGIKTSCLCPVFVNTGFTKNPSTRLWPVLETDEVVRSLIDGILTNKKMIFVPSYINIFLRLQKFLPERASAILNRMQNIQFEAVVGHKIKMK
Where a name gives a salt, the structure may show the parent alone.
Please provide measured IC50 for the entries that follow.
Express your answer in nM, writing the number without its unit.

Q: I'd like to know its IC50. The compound in question is `COc1cnc(-c2noc([C@]34CC[C@](CNC(=O)c5cc(F)c(O)c(F)c5F)(CC3)CC4)n2)cn1`
A: 8.2

Q: Try the compound `O=C(NC[C@H]1CC[C@H](n2cc3cc(C(F)(F)F)ccc3n2)CC1)c1cc(F)c(O)c(F)c1`
A: 16

Q: Try the compound `O=C(NC[C@H]1CC[C@H](c2nc(-c3ccc(C(F)(F)F)nc3)no2)CC1)c1cc(F)c(O)cc1F`
A: 39

Q: Try the compound CCn1cc(-c2ccc3cn([C@H]4CC[C@H](CNC(=O)c5cc(F)c(O)c(F)c5F)CC4)nc3c2)cn1 [Example 150, trifluoroacetate salt]
A: 4.8

Q: Try the compound `Cn1cc(-c2cc3cn([C@H]4CC[C@H](CNC(=O)c5cc(F)c(O)c(F)c5)CC4)nc3cn2)cn1`
A: 10

Q: Try the compound `COc1cnc(-c2noc([C@H]3CC[C@H](CNC(=O)c4cc(F)c(O)c(F)c4)CC3)n2)cn1`
A: 13

Q: Try the compound O=C(NC[C@H]1CC[C@H](n2cc3cc(Cl)ccc3n2)CC1)c1cc(F)c(O)cc1F [Example 145, trifluoroacetate salt]
A: 18

Q: Try the compound `O=C(NC[C@]12CC[C@](n3cc4cc(C(F)(F)F)ccc4n3)(CC1)CC2)c1cc(F)c(O)c(F)c1`
A: 17

Q: Try the compound `O=C(NC[C@H]1CC[C@H](c2nc(-c3ccc(C(F)(F)F)cn3)no2)CC1)c1cc(F)c(O)c(F)c1`
A: 12

Q: Try the compound CC(C)(C)C(=O)Nc1ccc(-c2noc([C@H]3CC[C@H](CNC(=O)c4cc(F)c(O)c(F)c4)CC3)n2)nn1 [Example 17, ammonium salt]
A: 12

Q: Try the compound `CC(C)(O)c1cncc(-c2ccc3cn([C@H]4CC[C@H](CNC(=O)c5cc(F)c(O)c(F)c5)CC4)nc3c2)c1`
A: 11

Q: Try the compound `Cn1cc(-c2ccc3cn([C@H]4CC[C@H](CNC(=O)c5cc(F)c(O)c(F)c5)CC4)nc3c2)cn1`
A: 5.8

Q: Try the compound `O=C(NC[C@H]1CC[C@H](c2nc(-c3ncc(C(F)(F)F)cn3)no2)CC1)c1cc(F)c(O)cc1F`
A: 6.5

Q: Try the compound `COc1cccc2nn([C@H]3CC[C@H](CNC(=O)c4cc(F)c(O)c(F)c4)CC3)cc12`
A: 14
